Biological target: CCR2 (Homo sapiens)
Construct: Membranes were prepared from THP-1 cells; endogenous in cells; host or cells: THP-1 cells (membrane preparation)
Sequence (P41597 1-360 isoform P41597-2): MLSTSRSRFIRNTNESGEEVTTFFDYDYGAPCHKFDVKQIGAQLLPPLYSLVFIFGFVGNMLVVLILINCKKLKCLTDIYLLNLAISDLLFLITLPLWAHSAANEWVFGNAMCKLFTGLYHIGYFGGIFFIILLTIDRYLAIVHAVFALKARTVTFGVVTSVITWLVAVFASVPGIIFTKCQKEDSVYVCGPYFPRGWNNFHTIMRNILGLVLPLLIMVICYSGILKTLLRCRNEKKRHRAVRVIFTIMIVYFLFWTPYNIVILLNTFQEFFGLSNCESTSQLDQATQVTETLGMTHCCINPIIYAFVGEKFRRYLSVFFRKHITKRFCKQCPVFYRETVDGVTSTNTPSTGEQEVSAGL
Assay: CCR2 receptor membrane binding assay ([125I]MCP-1, THP-1 cell membranes, SPA beads)
Details: @ 10 μM test compound; THP-1 membranes; read-out: CCR2 % ctrl @ 10 μM
Field: remaining activity at 10 µM. Provide a value for each of the molecules that follow.

Worked cases, answers included:
[
  {
    "molecule": "Cc1c(NCC2CCCN(c3ccccc3)C2)ncnc1C(=O)N1CCC(N2CCC(N(C)S(C)(=O)=O)CC2)CC1 (stereo not shown) [Example 155]",
    "remaining activity at 10 µM": "8%"
  },
  {
    "molecule": "Cc1ccc(CNc2ncnc(C(=O)N3CCC(N4CCC(O)CC4)CC3)c2C)cc1F [Example 120]",
    "remaining activity at 10 µM": "30%"
  },
  {
    "molecule": "Cc1ccc(CCNc2ncnc(C(=O)N3CCC(N4CCCCC4)CC3)c2C)cc1C [Example 143]",
    "remaining activity at 10 µM": "8%"
  }
]

Continue with the next molecule.
// remaining activity at 10 µM lookup, molecule = Cc1ccc(CNc2ncnc(C(=O)N3CCC(N4CCC(N(C)S(C)(=O)=O)CC4)CC3)c2C)cc1F [Example 65] , result: 8%
